# key: entry, value: IC50
- System: IgM antibody production from murine spleen B cells
- ASSAY_DETAILS: Effects on the IgM antibody production from murine spleen cells (LPS + IL4)
- Assay type: cell-based, BALB/c mouse
- RUN_CONDITIONS: Mus musculus, B-cell, 168 h; spleen B cells, LPS 10 μg/ml, IL4 100 U/ml, 7 days, enzyme-immunoassay; read-out: IC50 value, IgM antibody production

O=C(Oc1ccccc1)O[C@H]1C=C[C@H]2CO[C@@H]1O2 [Compound 22] | 230 µg/mL
Cc1ccc(S(=O)(=O)O[C@H]2C=C[C@H]3CO[C@@H]2O3)cc1 [Compound 46] | 0.35 µg/mL
CC(C)(C)NC(=O)O[C@H]1C=C[C@H]2CO[C@@H]1O2 [Compound 25] | 78 µg/mL

Fill in: IC50 of Cc1ccccc1C(=O)O[C@H]1C=C[C@H]2CO[C@@H]1O2 [Compound 50] is ___
< 0.001 µg/mL

Fill in: IC50 of O[C@@H]1C=C[C@H]2CO[C@@H]1O2 [Compound 103] is ___
1.3 µg/mL

Fill in: IC50 of C=C[C@]1(O)C=C[C@H]2CO[C@@H]1O2 [Compound 27] is ___
36 µg/mL

Fill in: IC50 of CCCCCCCCCC(=O)O[C@H]1C=C[C@H]2CO[C@@H]1O2 [Compound 12] is ___
0.11 µg/mL

Fill in: IC50 of COC(=O)O[C@H]1C=C[C@H]2CO[C@@H]1O2 [Compound 21] is ___
130 µg/mL

Fill in: IC50 of O=C(O[C@H]1C=C[C@H]2CO[C@@H]1O2)c1ccccc1 [Compound 5] is ___
170 µg/mL

Fill in: IC50 of CNC(=S)O[C@H]1C=C[C@H]2CO[C@@H]1O2 [Compound 24] is ___
10 µg/mL

----------
# key: entry, value: IC50
- Tested on: murine bone mallow cells
- ASSAY_DETAILS: Effects on the murine bone mallow cells (proliferation, 3H-TdR uptake)
- Assay type: cell-based, BALB/c mouse
- RUN_CONDITIONS: Mus musculus, bone marrow cells; 20% L929 culture supernatant, 48 hours, 3H-TdR uptake; Tables 12-15; read-out: IC50 value, c (murine bone mallow cells)

CO[C@H]1C=C[C@H]2CO[C@@H]1O2 | > 1000 µg/mL

Let us move to another entry and its IC50.
Fill in: IC50 of O=C(Oc1ccccc1)O[C@H]1C=C[C@H]2CO[C@@H]1O2 is ___
> 1000 µg/mL

----------
- Test system: murine bone mallow cells
- ASSAY_DETAILS: Effects on the murine bone mallow cells (proliferation, 3H-TdR uptake)
- Assay type: cell-based, BALB/c mouse
- RUN_CONDITIONS: Mus musculus, bone marrow cells; 20% L929 culture supernatant, 48 hours, 3H-TdR uptake; Tables 12-15; read-out: IC50 value, c (murine bone mallow cells)
ENDPOINT_NAME: IC50 (µg/mL)
Respond numerically; units are µg/mL and should not be typed.

Worked set:
C1=C[C@H]2CO[C@H](O2)[C@H]1OCc1ccccc1 | 430
CCCCCC(=O)O[C@H]1C=C[C@H]2CO[C@@H]1O2 | 270
CC(=O)O[C@@]1(C)C=C[C@H]2CO[C@@H]1O2 | 540
CCCC[C@]1(O)C=C[C@H]2CO[C@@H]1O2 | 190
CCCC#C[C@]1(O)C=C[C@H]2CO[C@@H]1O2 | 520

Let us move to another entry and its IC50.
Fill in: IC50 of CCCCCCCCCCCCCCCC(=O)O[C@H]1C=C[C@H]2CO[C@@H]1O2 is ___
89

----------
# key: entry, value: log10(IC50)
- Test system: murine bone mallow cells
- ASSAY_DETAILS: Effects on the murine bone mallow cells (proliferation, 3H-TdR uptake)
- Format: cell-based, BALB/c mouse
- RUN_CONDITIONS: Mus musculus, bone marrow cells; 20% L929 culture supernatant, 48 hours, 3H-TdR uptake; Tables 12-15; read-out: IC50 value, c (murine bone mallow cells)
Kindly note that the scale is log10 and the underlying IC50 is in µg/mL.

Worked set:
C=C[C@]1(O)C=C[C@H]2CO[C@@H]1O2 | 1.64
O=C(O[C@H]1C=C[C@H]2CO[C@@H]1O2)c1ccco1 | 2.71
O=C(CCl)O[C@H]1C=C[C@H]2CO[C@@H]1O2 | 1.83
O=C(O[C@H]1C=C[C@H]2CO[C@@H]1O2)C1CCCCC1 | 2.20
O=C(O[C@H]1C=C[C@H]2CO[C@@H]1O2)c1cccnc1 | 2.49
CC(C)(C)NC(=O)O[C@H]1C=C[C@H]2CO[C@@H]1O2 | 2.53
Cc1ccc(S(=O)(=O)O[C@H]2C=C[C@H]3CO[C@@H]2O3)cc1 | 2.28
CCCCCCCCCC(=O)O[C@H]1C=C[C@H]2CO[C@@H]1O2 | 2.75
O=C(O[C@H]1C=C[C@H]2CO[C@@H]1O2)c1ccccc1 | 2.18
CC(=O)Oc1ccccc1C(=O)O[C@H]1C=C[C@H]2CO[C@@H]1O2 | 2.32

Fill in: log10(IC50) of S=C(Oc1ccccc1)O[C@H]1C=C[C@H]2CO[C@@H]1O2 is ___
2.30

Fill in: log10(IC50) of O=C(O[C@H]1C=C[C@H]2CO[C@@H]1O2)c1ccc(Cl)cc1 is ___
2.23

Fill in: log10(IC50) of O=C(CCCCCCCCCCCCCCCO)O[C@H]1C=C[C@H]2CO[C@@H]1O2 is ___
1.61

Fill in: log10(IC50) of O=C(Nc1ccccc1)O[C@H]1C=C[C@H]2CO[C@@H]1O2 is ___
1.69

----------
- Test system: IgM antibody production from murine spleen B cells
- ASSAY_DETAILS: Effects on the IgM antibody production from murine spleen cells (LPS + IL4)
- Assay type: cell-based, BALB/c mouse
- RUN_CONDITIONS: Mus musculus, B-cell, 168 h; spleen B cells, LPS 10 μg/ml, IL4 100 U/ml, 7 days, enzyme-immunoassay; read-out: IC50 value, IgM antibody production
# key: entry, value: log10 of IC50
Kindly note that the scale is log10 and the underlying IC50 is in µg/mL.

CC(C)CC(=O)O[C@H]1C=C[C@H]2CO[C@@H]1O2 [Compound 2] | 2.40
CC(=O)O[C@@]1(C)C=C[C@H]2CO[C@@H]1O2 [Compound 32] | 2.54
C[C@]1(O)C=C[C@H]2CO[C@@H]1O2 [Compound 28] | 2.77
CCCCCCCCCCCCCCCC(=O)O[C@@H]1C=C[C@H]2CO[C@@H]1O2 [Compound 109] | 1.49
O[C@H]1C=C[C@H]2CO[C@@H]1O2 [Compound 1] | 1.40
CCCCCCCCCCCCCCCC(=O)O[C@H]1C=C[C@H]2CO[C@@H]1O2 [Compound 7] | 2.61
C1=C[C@H]2CO[C@H](O2)[C@H]1OCc1ccccc1 [Compound 48] | 1.54
CCCCCC(=O)O[C@H]1C=C[C@H]2CO[C@@H]1O2 [Compound 6] | 2.52

Param readout= log10 of IC50; system= IgM antibody production from murine spleen B cells; entry= CCCCCCCCCCCCCCCC(=O)O[C@@]1(C)C=C[C@H]2CO[C@@H]1O2 [Compound 33] ; returns value.
0.75

Param readout= log10 of IC50; system= IgM antibody production from murine spleen B cells; entry= O=C(O[C@H]1C=C[C@H]2CO[C@@H]1O2)c1cccs1 [Compound 14] ; returns value.
-0.05

----------
- Tested on: murine bone mallow cells
- ASSAY_DETAILS: Effects on the murine bone mallow cells (proliferation, 3H-TdR uptake)
- Assay type: cell-based, BALB/c mouse
- RUN_CONDITIONS: Mus musculus, bone marrow cells; 20% L929 culture supernatant, 48 hours, 3H-TdR uptake; Tables 12-15; read-out: IC50 value, c (murine bone mallow cells)
IC50 strictly less than 400 µg/mL = 1. Otherwise 0.

Worked set:
C[C@]1(O)C=C[C@H]2CO[C@@H]1O2 | 1
O[C@H]1C=C[C@H]2CO[C@@H]1O2 | 1

A record lists O=C(O[C@H]1C=C[C@H]2CO[C@@H]1O2)c1cccs1 . Is its IC50 below 400 µg/mL?
0

A record lists CCCCCCCCCCCCCCCC(=O)O[C@@]1(C)C=C[C@H]2CO[C@@H]1O2 . Is its IC50 below 400 µg/mL?
0

A record lists O=C(CCCCCBr)O[C@H]1C=C[C@H]2CO[C@@H]1O2 . Is its IC50 below 400 µg/mL?
1

A record lists CC(=O)O[C@H]1C=C[C@H]2CO[C@@H]1O2 . Is its IC50 below 400 µg/mL?
0

A record lists Cc1ccccc1C(=O)O[C@H]1C=C[C@H]2CO[C@@H]1O2 . Is its IC50 below 400 µg/mL?
1

A record lists O=C(/C=C/c1ccccc1)O[C@H]1C=C[C@H]2CO[C@@H]1O2 . Is its IC50 below 400 µg/mL?
1
